// reported ED50 per item
System: phenyl-para-quinone induced writhes
Assay: phenyl-para-quinone writhing assay in mice (analgesia)
Type: in vivo
Conditions: Mus musculus, sc, subcutaneous, estimated dose for 50% reduction in phenyl-para-quinone induced writhes, read-out: Analgesic Activity (ED50 mg/kg)
Answer with a number only, understood to be in mg/kg.

{"Compound": "Cl.OC1(c2cccc(Cl)c2)CCN(CCCc2noc3cc(F)ccc23)CC1", "Units Text": "mg/kg", "Quantitative Result": 0.8}
{"Compound": "OC1(c2ccc(F)cc2)CCN(CCCc2noc3cc(F)ccc23)CC1", "Units Text": "mg/kg", "Quantitative Result": 6.2}
{"Compound": "Cl.OC1(c2cccc(C(F)(F)F)c2)CCN(CCCc2noc3cc(F)ccc23)CC1", "Units Text": "mg/kg", "Quantitative Result": 1}
{"Compound": "CCC(=O)O[C@](Cc1ccccc1)(c1ccccc1)[C@H](C)CN(C)C [propoxyphene, reference compound]", "Units Text": "mg/kg", "Quantitative Result": 3.9}
{"Compound": "OC1(c2ccccc2)CCN(CCCc2noc3cc(F)ccc23)CC1", "Units Text": "mg/kg", "Quantitative Result": 5.9}
{"Compound": "COc1ccc(C2(O)CCN(CCCc3noc4cc(F)ccc34)CC2)cc1.Cl", "Units Text": "mg/kg", "Quantitative Result": 3.8}

API: the following record is the query input.
Give ED50 for the following compound: CC(C)=CCN1CCC2(C)c3cc(O)ccc3CC1C2C (stereo not shown) [pentazocin, reference compound]
1.3
